target_desc: adenosine A1 receptor (Homo sapiens (Human))
Sequence (P30542 whole entry): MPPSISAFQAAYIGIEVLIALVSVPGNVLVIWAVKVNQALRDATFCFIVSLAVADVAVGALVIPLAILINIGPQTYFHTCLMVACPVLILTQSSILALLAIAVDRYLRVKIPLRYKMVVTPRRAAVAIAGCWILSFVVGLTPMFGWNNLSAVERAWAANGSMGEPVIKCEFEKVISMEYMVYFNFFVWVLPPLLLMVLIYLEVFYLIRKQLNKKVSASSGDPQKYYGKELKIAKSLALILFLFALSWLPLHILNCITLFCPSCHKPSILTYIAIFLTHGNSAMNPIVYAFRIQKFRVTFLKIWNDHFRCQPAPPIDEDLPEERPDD
test_summary: Adenosine receptor activity assay (Table 1), A1 cAMP
Assay type: biochemical
pIC50: −log10 of the molar value.
metric_name: pIC50

Here is how some compounds turned out for pIC50.
Cc1cc2nc(N[C@@H](C)c3cncc(F)c3)nc(C(=O)N3CC(CNC(=O)OC(C)(C)C)C3)c2s1 ... < 6.30
Cc1cc2nc(N[C@@H](C)c3cncc(F)c3)nc(C(=O)N3CC(CNC(=O)CC(C)(C)C)C3)c2s1 ... < 6.30
COc1ccc(CCCNC(=O)c2nc(N[C@@H](C)c3cncc(F)c3)nc3ccsc23)cc1 ... < 6.30

Endpoint output: pIC50 of Cc1cc2nc(N[C@@H](C)c3cncc(F)c3)nc(C(=O)N3CC(CC(=O)OC(C)(C)C)C3)c2s1 . Value? < 6.30
